Parameter IC50: see the listing below.
target: human recombinant, purified wild type His-B-Raf protein kinase (Homo sapiens, UniProt P15056); construct: His; experiment: B-Raf In Vitro ELISA Assay; settings: 2.5 nM B-Raf, 0.15 μM MEK1, 10 μM ATP; 1 hour preincubation at 25° C.; phosphorylation of MEK1
Sequence (P15056 whole entry): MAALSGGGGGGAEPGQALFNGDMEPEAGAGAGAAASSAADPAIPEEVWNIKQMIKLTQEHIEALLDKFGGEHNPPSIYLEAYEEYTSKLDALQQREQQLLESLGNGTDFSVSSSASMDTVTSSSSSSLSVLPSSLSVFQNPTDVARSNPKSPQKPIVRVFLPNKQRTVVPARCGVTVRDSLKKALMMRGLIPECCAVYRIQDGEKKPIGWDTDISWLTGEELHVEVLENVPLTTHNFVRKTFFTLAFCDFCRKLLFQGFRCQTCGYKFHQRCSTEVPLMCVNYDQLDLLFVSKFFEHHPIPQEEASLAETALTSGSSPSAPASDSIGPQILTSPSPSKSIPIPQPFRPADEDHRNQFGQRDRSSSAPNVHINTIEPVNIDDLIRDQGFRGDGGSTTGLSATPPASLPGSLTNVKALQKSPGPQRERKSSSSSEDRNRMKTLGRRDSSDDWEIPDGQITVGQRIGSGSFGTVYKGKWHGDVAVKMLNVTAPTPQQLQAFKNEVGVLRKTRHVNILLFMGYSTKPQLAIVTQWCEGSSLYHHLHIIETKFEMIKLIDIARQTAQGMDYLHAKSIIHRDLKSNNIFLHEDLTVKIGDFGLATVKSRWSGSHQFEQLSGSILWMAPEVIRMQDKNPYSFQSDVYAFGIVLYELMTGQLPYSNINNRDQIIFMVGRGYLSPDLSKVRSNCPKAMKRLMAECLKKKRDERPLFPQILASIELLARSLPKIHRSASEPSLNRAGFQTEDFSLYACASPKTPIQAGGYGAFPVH
I only need the number, in nM, no unit after it.

1) Cc1ccc(NC(=O)c2cccc(C(C)(C)C#N)c2)cc1NC(=O)c1ccc2ncn(C)c(=O)c2c1 [Example 6] : 3

// next entry
Task: # input compound: Cc1ccc(NC(=O)c2cccc(C(C)(C)C#N)c2)cc1NC(=O)c1ccc2nc[nH]c(=O)c2c1 [Example 1] ; wanted: its IC50
Output: 1
